Maximum mean fluorescence intensity listing for selected binders.
# Assayed Target: T1, human MSLN-R3 protein expressed on HEK293T cells (HEK293T-hMSLN-R3) (human, UniProt Q13421 487-606)
# T1 construct: C-terminal limit uncertain
# T1 sequence (Q13421 495-614): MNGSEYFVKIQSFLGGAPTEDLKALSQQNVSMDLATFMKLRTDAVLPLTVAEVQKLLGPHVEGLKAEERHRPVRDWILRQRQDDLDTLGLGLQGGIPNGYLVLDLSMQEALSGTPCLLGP
# Assay Explanation: FACS on HEK293T-hMSLN-R3 cells;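 note: chimeric antibodies incubated with cells on ice for 2 h, binding read by flow cytometry as mean fluorescence intensity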
Experimental Endpoint: Maximum mean fluorescence intensity

1) S009-F8-9.16 (antibody, human IgG1, kappa, V domains shown, human-murine chimeric antibody, human IgG1/kappa constant regions) VH: EVHLQQSGPVLVKPGASVKMSCKASGYTFTDYFMNWVKQSHGKSLEWIGVINPHNGYVNYNQKFQGRATLTVDKSSSTVYMELNSLTSEDSAVYHCARSAESAWFAYWGQRTLVTVSA VL: DVLMTQTPLSLPVSLGDQVSISCRSSQSIVHVKGNTYLEWYLQKPGQSPELLIYKVSNRFSGVPDRFSGGGSGTDFTLKISRVEPEDLGVYYCFQGSHLPYTFGGGTKLEIKR = 128000
2) S009-F8-32.3 (antibody, human IgG1, kappa, V domains shown, human-murine chimeric antibody, human IgG1/kappa constant regions) VH: QVQLKESGPGLVAPSQSLSITCTVSGFSLSSYAISWVRQPPGKGLEWLGVIWTGGGTNYNSALKSRLSISKDNSKSQVFLKMNSLQTDDTARFYCARNNYGRLDYAMDYWGQGTSVTVSS VL: DVVMTQTPLSLPVSLGDQASISCRSSQSLVHGNGNTYLHWYLQKPGQSPKLLIYKVSNRFSGVPDRFSGSGSGTDFTLKISRVETEDLGVYFCSQSTHVPFTFGSGTKLEIKR = 50

Just for reference, patent US20250250357A1 is where these values come from.
